assay: soluble fraction after stress (log2 fold change); higher = more stays soluble; pooled small domains, quantitative proteomics; conditions: stress: pH 4
Param threshold (-0.4) applies to soluble fraction (log2); output yes (1) when value >= threshold, no (0) when value < threshold.

Query :: Item HMGTSFKITFYKDAFQVDDGPIRMLNDPANQKFVDEVSQGYAPKELIGQGGKAPEIDIIDKRSENAPT with soluble fraction (log2) of -0.4 or above?
Result :: yes (1)

Query :: Is the recorded value of soluble fraction (log2) equal to or greater than -0.4 for this sequence? HMELEKIRPDLDGLEIMAILGISPSPIVGRAYQYLLDLRMDRGPLGPDAAKAELLNWWSLNQPK
Result :: no (0)

Query :: Does the reported soluble fraction (log2) for HMTTYSVDLGDIRAVADSDGKLVELTLHAAVTTHYSHSELADRLNLAFTALREEAQADYETRY fall at or above the -0.4 mark?
Result :: yes (1)

Query :: Test whether the sequence HMPRNEIQRSVLNELVQWIKNNLAKKLTMQALSRFSGYSEWHLFRLFRHYFNMSPMAYIRQQRMQ records soluble fraction (log2) of -0.4 or higher.
Result :: yes (1)

Query :: Does the reported soluble fraction (log2) for HMGNIITQEAAVKLAQDRVPNATLVKIEYDFDDGRPVYEGELREGRWEYEFEIDAATGEFLKWEKD fall at or above the -0.4 mark?
Result :: yes (1)

Query :: Assess whether reported soluble fraction (log2) for HMSDYKSALQEAVQTNKQSIEYVLIKESGPAHNKTFTFEVRIDNISYGVGTAKSKKEAEQIAAKDALDKLV sits at -0.4 or higher.
Result :: yes (1)

Query :: Does soluble fraction (log2) meet or surpass -0.4 for HMKGLDAAVVDLFKSKGASIVFAGNRLSLSGEVADQATKDELLAKAKAILASLGASVSLDDKLMVKGAKAS ?
Result :: yes (1)

Query :: Could you please find out whether HMDGVSLLFKLMETLPEQQKTILHLRDVEQLEFAEIAKITNTSQANVRVALSRARKKIKDLLLKQY has soluble fraction (log2) that meets -0.4 or exceeds it?
Result :: no (0)

# next sequence below
Query :: Please indicate if the recorded soluble fraction (log2) for HMNILVAISDTGEIWINKRRVDARAVQANIERLHAENPQGTVVIQADKQATTETLIKVMDASRAAGVFDVS meets or exceeds -0.4.
Result :: no (0)

---

assay: soluble fraction after stress (log2 fold change); higher = more stays soluble; pooled small domains, quantitative proteomics; conditions: stress: pH 4
PROPERTY: soluble fraction (log2)

Documented soluble fraction (log2) of HMSADDSDDRKGIDAWLTQLLANGSVKATEVYSAADAAGYSKDQAKRAKRRLAIEAVREAMDGPWFWRLD : -0.742

So for HMDTPMYMAIIEEVRFQIANEILKEGEQLPSIRNLAKTLKVSVITVKRAYKELEEAGYITTIPAKGSKVS , the logged soluble fraction (log2) turned out to be -0.167

New cases:
Item: HMQDREIHIHAGREVLEKELSRLSLHLKNTNLQEYAARFNVKTAEDILAGIGAGDIRPAHVVNLIADKL | soluble fraction (log2): -0.222

Looking up HMFEDEYLETMYAFYETDPQALVRTGDLASSLKVSPASATEMVQRLASKGFVDYIPYKGASLTELGLAM , I found its soluble fraction (log2) recorded as -0.438
